Conditions: buffer; pH 7.4; 200.0 µM
MEASURE: solubility kinetic (mg/mL)
# unit: mg/mL | format: bare number

The cases that follow already have their solubility kinetic on record.
O=C(Nc1nc(-c2cccnc2)cs1)c1cccc([N+](=O)[O-])c1	0.0009
CC1CCCC(C)N1C(=O)COC(=O)c1ccc2ccccc2n1 (stereo not given)	0.0153
CCOc1ccc(NC(=O)CNC(=O)c2ccc(OC)cc2)cc1	0.0041
Cc1cc(F)ccc1NCc1ccc([N+](=O)[O-])cc1	0.0003
Cn1ccnc1-c1ccc(-c2nccn2C)cc1	0.0338
CN(C)c1ccc(C(=O)NCC(c2cccs2)N2CCOCC2)cc1 (stereo not given)	0.0493

For Cc1ccc2c(c1)N(Cc1cccc(F)c1)C(=O)C(C)O2 (stereo not given) the compound record lists solubility kinetic as 0.0127

For CC(C)(C)NS(=O)(=O)c1ccc(NC(=O)C2CCCO2)cc1 (stereo not given) the compound record lists solubility kinetic as 0.0437

For OC(CN1CCN(c2cccc(Cl)c2)CC1)c1ccccc1 (stereo not given) the compound record lists solubility kinetic as 0.0161

For CNS(=O)(=O)c1ccc2c3c(cccc13)C(=O)N2 the compound record lists solubility kinetic as 0.0277

For Cc1cc(C)cc(Nc2ccc3nonc3c2[N+](=O)[O-])c1 the compound record lists solubility kinetic as 0.0011

====

Conditions: buffer; pH 7.4; 200.0 µM
MEASURE: log10 of solubility kinetic (log10 of the value in µg/mL)
In plain terms, each number is the log10 of measured solubility kinetic in µg/mL.

CC(=O)Nc1ccc(NC(=O)CNC(=O)c2cccc(C)c2)cc1	1.31
O=C(Nc1ccc2c(c1)OCO2)c1noc2c1CCCC2	0.61
CC1CCCN(C2(O)C(=O)Nc3ccc([N+](=O)[O-])cc32)C1 (configuration not stated)	1.22
CCOc1ccc(N=Cc2c(O)n(-c3ccc(C)c(C)c3)c(=O)[nH]c2=O)cc1	0.46

Now examine the next entry.
For CC(Cc1ccccc1)N1Cc2ccccc2C1 (configuration not stated) the compound record lists log10 of solubility kinetic as 1.55

====

Conditions: buffer; pH 7.4; 200.0 µM
MEASURE: solubility kinetic (mg/mL)
# unit: mg/mL | format: bare number

The cases that follow already have their solubility kinetic on record.
O=C(CNC(=O)c1ccccc1Cl)OC1CCOC1=O (stereo unspecified)	0.0421
CC1CCN(C(=S)NC(=O)c2cccc([N+](=O)[O-])c2)CC1	0.0342

For COC(=O)c1sc(NC(=O)c2cc(C)on2)nc1C the compound record lists solubility kinetic as 0.0355

For CC(C)(C)C(=O)O/N=C(\N)c1c(Cl)cccc1Cl the compound record lists solubility kinetic as 0.0309

For O=C(/C=C/c1cccc([N+](=O)[O-])c1)OCC(=O)N1CCN(C(=O)c2ccco2)CC1 the compound record lists solubility kinetic as 0.0309

====

Details: buffer; pH 7.4; 200.0 µM
The label depends only on solubility kinetic: true (1) if it is at least 20 µg/mL, false (0) if it is smaller.

Solved cases below.
O=C(COC(=O)COc1ccccc1)Nc1ccc2c(c1)OCCO2	false (0)
Cc1ccc(S(=O)(=O)N(C)C(C)CCc2ccco2)cc1 (stereo not given)	true (1)
Cc1cc(C(=O)CN2C(=O)NC(C)(c3cc(F)ccc3F)C2=O)c(C)n1C1CC1 (stereo not given)	true (1)
Nc1nc(SCc2ccccc2)c2[nH]cnc2n1	true (1)

Task: In plain terms: is recorded solubility kinetic at least 20 µg/mL for O=C(NCC1CCCO1)c1ccccc1NS(=O)(=O)c1cc([N+](=O)[O-])ccc1Cl (stereo not given) ?
Output: true (1)

Task: In plain terms: is recorded solubility kinetic at least 20 µg/mL for Cc1ccc2cc(C)c(SCC(=O)Nc3cc(C)on3)nc2c1 ?
Output: false (0)

Task: In plain terms: is recorded solubility kinetic at least 20 µg/mL for O=C(O)c1cc([N+](=O)[O-])ccc1NCCCc1ccccc1 ?
Output: true (1)

Task: In plain terms: is recorded solubility kinetic at least 20 µg/mL for O=C(NCCCCc1ccccc1)Nc1ccc(F)cc1F ?
Output: false (0)

Task: In plain terms: is recorded solubility kinetic at least 20 µg/mL for O=C(COC(=O)CNC(=O)C1CCCCC1)NCc1ccc(Cl)cc1 ?
Output: true (1)

Task: In plain terms: is recorded solubility kinetic at least 20 µg/mL for Cc1ccc2[nH]c(C(=O)NCCN3CCCC3)cc2c1.Cl ?
Output: true (1)

Task: In plain terms: is recorded solubility kinetic at least 20 µg/mL for CCc1cc(SC#N)ccc1N ?
Output: true (1)

Task: In plain terms: is recorded solubility kinetic at least 20 µg/mL for CCOc1ccc2oc(-c3ccccc3)c(C(N)=O)c2c1 ?
Output: false (0)

Task: In plain terms: is recorded solubility kinetic at least 20 µg/mL for COCCCNC(=S)Nc1ccc(C)cc1 ?
Output: true (1)
